Tested on: UACC-257 melanoma
Assay: NCI-60 one-dose screen, 48 h
Conditions: 10 µM
The panel holds about 83,000 compounds, 20% with a hit somewhere; the sample as a whole holds those more often. Active and inactive are the calls of the source. Rule for the calls: active = growth percent below 10; inactive = the rest.
Log the outcome using a class from active, inactive

Use the examples below as a reference point.
Molecule: CNC(=O)c1c(I)c(NC(C)=O)c(I)c(C(=O)O)c1I
Class Name: inactive
//
Molecule: CCOC(=O)c1cc(C(=O)c2cc(OC)c(OC)c(OC)c2)n2c1ccc1c3cccnc3ccc12
Class Name: inactive
//
Molecule: COc1cc2cc(Oc3ccc(NC(=O)c4ccc(Cl)c(C(F)(F)F)c4)cc3)c(C)nc2cc1OC
Class Name: inactive
//
Molecule: O=C1CC(SC(=S)C2CCCC2=O)C(=O)N1 (stereo unspecified)
Class Name: inactive
//
Molecule: Cc1ccccc1N1C(=O)c2cc(S(N)(=O)=O)c(Cl)cc2NC1C (stereo unspecified)
Class Name: inactive

Could you please tell me the result logged for NC1=NC(c2ccc(Cl)cc2)C2=C(N1)/C(=C/c1ccc(Cl)cc1)CCC2 (stereo unspecified) in this assay?
inactive

Could you please tell me the result logged for COC1OC(COS(=O)OC)C(O)C(O)C1OS(=O)OC (stereo unspecified) in this assay?
inactive

Could you please tell me the result logged for CCCCCCCCCCCC[n+]1c(C)cc(N)c2ccccc21 in this assay?
active

Could you please tell me the result logged for COc1cc(/C=C/c2cc(/C=C/c3ccc(O)c(OC)c3)[nH]c(=O)n2)ccc1O in this assay?
inactive

Could you please tell me the result logged for COc1cc(NC(=O)C2=C(N3CCOCC3)/C(=C/c3ccc(Cl)cc3)CC2)cc(OC)c1OC in this assay?
inactive

Could you please tell me the result logged for Cc1cc(SCc2ccccc2)nc(N)n1 in this assay?
inactive

Just for reference, PubChem BioAssay (NCI) is where these values come from.
